Record set: IC50 | 5-hydroxytryptamine receptor 7 (Homo sapiens, UniProt P34969) | literature, multiple sources.

CC(Nc1ccnc(NCCn2ccc3ccccc32)n1)c1ccccc1 (centres unmarked) : ≤ 50 nM
C[C@H](Nc1nc(N)nc(NCCc2ccc(N)cc2)n1)c1ccc([N+](=O)[O-])cc1 : ≤ 50 nM
COc1ccccc1CCNc1nc(C)cc(N[C@@H](C)c2ccccc2)n1 : ≤ 50 nM
CC(Nc1ccnc(NCCc2ccccc2)n1)c1ccc(Cl)cc1 (centres unmarked) : ≤ 50 nM
c1ccc(OCCNc2nccc(NCc3cccc4ccccc34)n2)cc1 : ≤ 50 nM

Lookup: # input compound: Cc1ccc([C@@H](C)Nc2ccnc(NCCOc3ccccc3)n2)cc1 ; wanted: its IC50
Found: 51 to 100 nM

Lookup: Let us now turn to CC(Nc1ccnc(NCCc2ccccn2)n1)c1ccccc1 (centres unmarked)
Found: 51 to 100 nM

Lookup: Let us now turn to COc1ccc(CNc2ccnc(NCCc3ccccc3)n2)cc1
Found: ≤ 50 nM

Lookup: Let us now turn to FC(F)(F)c1ccc(CNc2ccnc(NCCc3ccccc3)n2)cc1
Found: 101 to 200 nM

Lookup: Let us now turn to COc1cccc(CNc2ccnc(NCCc3ccccc3)n2)c1
Found: ≤ 50 nM

Lookup: Let us now turn to Fc1ccc(CNc2ccnc(NCCc3ccccc3)n2)cc1C(F)(F)F
Found: 101 to 200 nM

Lookup: Let us now turn to COc1cccc(N(C(C)CCN2CCC(C)CC2)S(=O)(=O)c2cccc3ccccc23)c1 (centres unmarked)
Found: 34 nM

Lookup: Let us now turn to CCN1CCCC1CNC(=O)c1cc(S(=O)(=O)CC)c(NC)cc1OC (centres unmarked)
Found: 74 nM

Lookup: Let us now turn to Clc1ccc(CNc2ccnc(NCCc3ccccc3)n2)cc1
Found: ≤ 50 nM

Lookup: Let us now turn to COc1ccccc1CNc1ccnc(NCCc2ccccc2)n1
Found: ≤ 50 nM

Lookup: Let us now turn to c1ccc(CCNc2nccc(NCc3ccco3)n2)cc1
Found: 101 to 200 nM

Lookup: Let us now turn to FC(F)(F)c1cccc(CNc2ccnc(NCCc3ccccc3)n2)c1
Found: ≤ 50 nM

Lookup: Let us now turn to COc1cccc(CCNc2nc(N)nc(N[C@@H](C)c3ccc([N+](=O)[O-])cc3)n2)c1
Found: ≤ 50 nM

Lookup: Let us now turn to CC(Nc1ccnc(NCCc2cccc(C(F)(F)F)c2)n1)c1ccccc1 (centres unmarked)
Found: 51 to 100 nM

Lookup: Let us now turn to Fc1ccc(CNc2ccnc(NCCOc3ccccc3)n2)cc1Cl
Found: ≤ 50 nM

Lookup: Let us now turn to c1ccc(CNc2ccnc(NCCOc3ccccc3)n2)cc1
Found: ≤ 50 nM

Lookup: Let us now turn to CC[C@H](Nc1nc(N)nc(NCCc2ccc(C)cc2)n1)c1ccccc1
Found: 51 to 100 nM

Lookup: Let us now turn to COc1ccc2[nH]cc(CCNC(=O)c3cc(=O)cco3)c2c1
Found: > 10000 nM

Lookup: Let us now turn to CC[C@H](Nc1nc(N)nc(NCCc2ccc(F)cc2)n1)c1ccccc1
Found: ≤ 50 nM

Lookup: Let us now turn to COc1ccc(CCNc2nccc(NC(C)c3ccccc3)n2)cc1 (centres unmarked)
Found: 101 to 200 nM
